- assay.text: drug combination growth inhibition, ovarian cancer – cell-based, oncology-focused library, rucaparib conditional, profiling panel (AID 1508598)
- measurement.setup: patient-derived ovarian cancer cells, CellTiter-Glo viability, 144 h; at 0.0195 µM; OCI-P5x cells; without rucaparib; stronger effect = lower value
Consider the following compounds; for each one, report its viability.
The figure you give is taken to be in %; do not add the unit.

viability recorded for this compound, "CNC(=O)c1ccc(C)c(-n2c(C)cc(OCc3ccc(F)cc3F)c(Br)c2=O)c1" , is 107

viability recorded for this compound, "COc1ccc(S(=O)(=O)Nc2cccnc2Nc2ccc(O)cc2)cc1" , is 122

viability recorded for this compound, CC(C)C[C@H](NC(=O)CNC(=O)c1cc(Cl)ccc1Cl)B1OC(=O)CC(CC(=O)O)(C(=O)O)O1 (some centres not stated) , is 104

viability recorded for this compound, "COc1cc2nccc(Oc3ccc(NC(=O)NC4CC4)c(Cl)c3)c2cc1C(N)=O" , is 114

viability recorded for this compound, "CN1CCN(c2ccc3nc(-c4c(N)c5c(F)cccc5[nH]c4=O)[nH]c3c2)CC1" , is 76.1

viability recorded for this compound, "CC(C)c1ccccc1Cc1cc(C(=O)Nc2ccc(S(=O)(=O)c3ccccc3C(C)(C)C)cc2)c(O)c(O)c1O" , is 114

viability recorded for this compound, "Cc1ccc(C(=O)Nc2ccc(CN3CCN(C)CC3)c(C(F)(F)F)c2)cc1C#Cc1cnc2cccnn12" , is 89.9

viability recorded for this compound, "O=C(O)c1ccc2c(c1)nc(Nc1cccc(Cl)c1)c1ccncc12" , is 115

viability recorded for this compound, "O=C(O)c1ccc(O)c2ncccc12" , is 105

viability recorded for this compound, "Cn1c(=O)c(F)c(Nc2ccc(I)cc2F)c2c(=O)n(C[C@@H](O)CO)cnc21" , is 66.1

viability recorded for this compound, "CC(C)[C@H](C(=O)Nc1ccc(C(=O)NO)cc1)c1ccccc1" , is 110

viability recorded for this compound, "Cc1cc(N2CCOCC2)cc2[nH]c(-c3c(NC[C@@H](O)c4cccc(Cl)c4)cc[nH]c3=O)nc12" , is 96.1

====

- assay.text: drug combination growth inhibition, ovarian cancer – cell-based, oncology-focused library, rucaparib conditional, profiling panel (AID 1508598)
- measurement.setup: patient-derived ovarian cancer cells, CellTiter-Glo viability, 144 h; at 5 µM; OCI-P5x cells; with rucaparib 20 µM; stronger effect = lower value; 100% = cells with rucaparib alone
Cut-off 4% on viability: below means MET, at or above means NOT MET.

Regarding "COCCOc1nc(-c2ccc(Cl)c(Cl)c2)n(-c2ccc(NC(=O)CCl)cc2)n1" , kindly confirm whether its viability is beneath 4%.
MET

Regarding "CC1(COc2ccc3c(c2)ncn3-c2ccc3cccc(N4CCC(N)CC4)c3n2)COC1" , kindly confirm whether its viability is beneath 4%.
NOT MET

Regarding "CN1CCC(CNc2ccc3ncc(-c4cccc(OC(F)(F)F)c4)n3n2)CC1" , kindly confirm whether its viability is beneath 4%.
NOT MET

Regarding "Cc1cc(Nc2nc(N[C@@H](C)c3ncc(F)cn3)ncc2Cl)n[nH]1" , kindly confirm whether its viability is beneath 4%.
NOT MET

Regarding "CCCCCCCCc1ccc(CCC(N)(CO)CO)cc1" , kindly confirm whether its viability is beneath 4%.
NOT MET

Regarding "CN1CCN(c2ccc(OC(F)(F)F)c(Nc3ncc4c(n3)-c3c(c(C(N)=O)nn3CCO)CC4)c2)CC1" , kindly confirm whether its viability is beneath 4%.
NOT MET
